Biological target: soluble guanylate cyclase (sGC) (Homo sapiens, UniProt Q02108+Q02153)
Construct: endogenously expressing soluble guanylate cyclase (sGC); endogenous in cells; host or cells: HEK293
Test: sGC-HEK-cGMP assay
Assay type: cell-based
Conditions: compound at 10 μM, HEK293 cells, 10 μM SNP; percentage of sGC activity obtained with positive control BAY 41-2272 (= 100%)
ASSAY_READOUT: Emax at 10 µM

Emax at 10 µM reading for `Fc1ccccc1Cn1nc(-c2nccs2)nc1-c1cc(Br)ccn1` : 10 to 20%

Given item `Fc1ccc(-c2nc(-c3nccs3)n(Cc3ccccc3F)n2)nc1` , the value recorded as its Emax at 10 µM is 40 to 60%

Sure, the documented Emax at 10 µM for `Fc1ccccc1Cn1nc(-c2ccccn2)nc1-n1ccnc1` is 0 to 5%

Noted for `Nc1ccnc(-c2nc(-c3cocn3)n(Cc3ccccc3F)n2)c1` : its Emax at 10 µM reads 40 to 60%

Entry `Fc1ccccc1Cn1nc(-c2cccc(Br)n2)nc1-c1nccs1` , Emax at 10 µM reported as 10 to 20%

Recorded result, `Fc1ccccc1Cn1nc(-c2cocn2)nc1-c1nccs1` , Emax at 10 µM: 10 to 20%

Recorded Emax at 10 µM (molecule `Fc1ccccc1Cn1nc(-c2ncccn2)nc1-c1ccon1` ): 0 to 5%

Record `Fc1ccccc1Cn1nc(-c2ncccn2)nc1-c1ccco1` . Reported Emax at 10 µM: 10 to 20%

The molecule identified as `Fc1ccccc1Cn1nc(-c2cc(N3CCOCC3)ccn2)nc1-c1nccs1` registered its Emax at 10 µM at 80 to 100%

The molecule identified as `Fc1ccccc1Cn1nc(-c2ccccn2)nc1C1CCC1` registered its Emax at 10 µM at 5 to 10%

Measured Emax at 10 µM of `COC(=O)N(C)c1c(N)nc(-c2nc(-c3nccs3)n(Cc3ccccc3F)n2)nc1N` : 20 to 40%

So for `Fc1ccccc1Cn1nc(-c2cocn2)nc1-c1ncccn1` , the logged Emax at 10 µM turned out to be 0 to 5%

Briefly, Emax at 10 µM measured for `Fc1ccccc1Cn1nc(-c2ncccn2)nc1-c1cscn1` : 0 to 5%

Please fill in: Emax at 10 µM reported for `Nc1ccnc(-c2nc(-c3nccs3)nn2Cc2ccccc2F)c1` = 0 to 5%

Just so you know, measured Emax at 10 µM for `Fc1ccccc1Cn1nc(-c2nccs2)nc1-c1cscn1` came out at 40 to 60%

# Emax at 10 µM of `COC(=O)c1nc(-c2ccccn2)nn1Cc1ccccc1F` = 0 to 5%

Lab note: measured Emax at 10 µM of `Fc1ccccc1Cn1nc(-c2cc(Br)ccn2)nc1-c1cocn1` was 20 to 40%

Note to self: Emax at 10 µM recorded for `Fc1ccccc1Cn1nc(-c2cscn2)nc1-c1nccs1` was 20 to 40%

Reported Emax at 10 µM ( `Fc1ccccc1Cn1nc(-c2ncccn2)nc1-c1ncco1` ) = 0 to 5%

* * *

Kindly state Emax at 30 µM for each of the entries shown.
Biological target: soluble guanylate cyclase (sGC) (Homo sapiens, UniProt Q02108+Q02153)
Construct: endogenously expressing soluble guanylate cyclase (sGC); endogenous in cells; host or cells: HEK293
Sequence (Q02153 1-619): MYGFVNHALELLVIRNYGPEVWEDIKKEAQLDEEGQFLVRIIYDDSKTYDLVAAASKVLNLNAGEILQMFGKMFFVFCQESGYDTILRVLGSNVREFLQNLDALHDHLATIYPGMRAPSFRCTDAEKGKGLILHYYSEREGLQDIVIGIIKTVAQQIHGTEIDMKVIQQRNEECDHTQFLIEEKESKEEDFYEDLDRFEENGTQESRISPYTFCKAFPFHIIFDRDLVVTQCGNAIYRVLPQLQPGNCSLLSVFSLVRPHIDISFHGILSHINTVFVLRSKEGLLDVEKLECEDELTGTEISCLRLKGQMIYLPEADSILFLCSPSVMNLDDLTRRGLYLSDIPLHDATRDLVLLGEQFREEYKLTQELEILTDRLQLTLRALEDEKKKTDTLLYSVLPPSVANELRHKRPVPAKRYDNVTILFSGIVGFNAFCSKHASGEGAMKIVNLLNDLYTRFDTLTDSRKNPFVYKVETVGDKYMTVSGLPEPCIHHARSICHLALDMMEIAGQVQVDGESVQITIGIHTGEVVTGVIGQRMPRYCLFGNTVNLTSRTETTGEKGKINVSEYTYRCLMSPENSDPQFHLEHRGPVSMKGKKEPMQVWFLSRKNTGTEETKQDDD
Sequence (Q02108 1-690): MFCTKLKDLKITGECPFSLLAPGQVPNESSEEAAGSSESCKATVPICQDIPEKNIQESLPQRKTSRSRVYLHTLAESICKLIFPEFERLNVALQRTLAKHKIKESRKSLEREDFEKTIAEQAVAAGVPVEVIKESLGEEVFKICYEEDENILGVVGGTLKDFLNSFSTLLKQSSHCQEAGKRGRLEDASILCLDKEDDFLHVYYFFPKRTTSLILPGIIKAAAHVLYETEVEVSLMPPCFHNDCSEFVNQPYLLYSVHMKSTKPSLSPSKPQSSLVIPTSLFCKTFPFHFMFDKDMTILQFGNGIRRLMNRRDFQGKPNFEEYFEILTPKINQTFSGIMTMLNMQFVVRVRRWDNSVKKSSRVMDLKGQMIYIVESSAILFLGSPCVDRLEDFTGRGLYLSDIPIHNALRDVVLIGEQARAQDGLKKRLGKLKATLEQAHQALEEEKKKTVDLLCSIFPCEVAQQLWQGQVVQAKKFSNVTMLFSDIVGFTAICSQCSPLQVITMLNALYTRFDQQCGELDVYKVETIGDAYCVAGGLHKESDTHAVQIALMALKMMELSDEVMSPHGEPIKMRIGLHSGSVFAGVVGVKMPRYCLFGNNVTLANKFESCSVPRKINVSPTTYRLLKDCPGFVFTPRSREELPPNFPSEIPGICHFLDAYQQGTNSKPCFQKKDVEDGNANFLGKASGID
Assay: sGC-HEK-cGMP assay
Format: cell-based
Conditions: compound at 30 μM, HEK293 cells, 10 μM SNP; percentage of sGC activity obtained with positive control BAY 41-2272 (= 100%)

Notebook: `Nc1ccnc(-c2nc(-c3nccs3)nn2Cc2ccccc2F)c1` , Emax at 30 µM read as 0 to 5%

Entry `Fc1ccccc1Cn1nc(-c2ccccn2)nc1-c1ccccn1` , Emax at 30 µM reported as 20 to 40%

Record `COC(=O)c1nc(-c2ccccn2)nn1Cc1ccccc1F` , field Emax at 30 µM: 0 to 5%

Just so you know, measured Emax at 30 µM for `Fc1ccccc1Cn1nc(-c2ncccn2)nc1-c1cscn1` came out at 20 to 40%

// field: Emax at 30 µM; key: `Fc1ccccc1Cn1nc(-c2nccs2)nc1-c1ccccn1` ; value = 10 to 20%

Record `Fc1ccccc1Cn1nc(-c2ccccn2)nc1-n1cncn1` . Reported Emax at 30 µM: 20 to 40%

Recorded result, `Fc1ccccc1Cn1nc(-c2ccccn2)nc1C1CC1` , Emax at 30 µM: 0 to 5%

Record summary for `Fc1ccccc1Cn1nc(-c2ccccn2)nc1-c1ncccn1` : reported Emax at 30 µM = 0 to 5%

What the record says about `Nc1ccnc(-c2nc(-c3cscn3)n(Cc3ccccc3F)n2)c1` : Emax at 30 µM is 60 to 80%

Emax at 30 µM measured on `Fc1ccccc1Cn1nc(-c2ncccn2)nc1-c1ncco1` = 5 to 10%

Kindly note the recorded Emax at 30 µM for `Fc1ccccc1Cn1nc(-c2cscn2)nc1-c1cnccn1` , which is 5 to 10%

Lab book: Emax at 30 µM of `Fc1ccccc1Cn1nc(-c2cc(Br)ccn2)nc1-c1cocn1` noted as 40 to 60%

Item: `Fc1ccccc1Cn1nc(-c2cscn2)nc1-c1ncccn1` | Emax at 30 µM: 0 to 5%

// recorded Emax at 30 µM for `Fc1ccccc1Cn1nc(-c2ncco2)nc1-c1ccccn1` : 5 to 10%

Short answer for `Fc1ccccc1Cn1nc(-c2cc(N3CCOCC3)ccn2)nc1-c1nccs1` : Emax at 30 µM was 80 to 100%

// sample `Fc1ccccc1Cn1nc(-c2ccccn2)nc1Br` , its Emax at 30 µM was 5 to 10%

Please fill in: Emax at 30 µM reported for `Fc1ccccc1Cn1nc(-c2nccs2)nc1-c1cc(Br)ccn1` = 20 to 40%

The measured Emax at 30 µM associated with `Fc1ccccc1Cn1nc(-c2cocn2)nc1-c1ncccn1` reads 0 to 5%

Please fill in: Emax at 30 µM reported for `Fc1ccccc1Cn1nc(-c2ccccn2)nc1C1CCC1` = 10 to 20%

Measured Emax at 30 µM of `Fc1ccccc1Cn1nc(-c2ncccn2)nc1-c1nccs1` : 20 to 40%

Reported Emax at 30 µM ( `Fc1ccccc1Cn1nc(-c2nccs2)nc1-c1ncccn1` ) = 0 to 5%

Value of measured Emax at 30 µM for the entry `Fc1ccccc1Cn1nc(-c2cocn2)nc1-c1ccccn1` : 0 to 5%

// field: Emax at 30 µM; key: `Fc1ccccc1Cn1nc(-c2ccccn2)nc1-n1ccnc1` ; value = 5 to 10%

What the record says about `Fc1ccccc1Cn1nc(-c2ccccn2)nc1-c1ccon1` : Emax at 30 µM is 60 to 80%

// field: Emax at 30 µM; key: `Nc1nc(-c2nc(-c3nccs3)n(Cc3ccccc3F)n2)nc(N)c1N` ; value = 0 to 5%

Emax at 30 µM reported for this compound `Fc1ccccc1Cn1nc(-c2ccccn2)nc1-c1cscn1` : 40 to 60%

Kindly note the recorded Emax at 30 µM for `Fc1ccccc1Cn1nc(-c2ncccn2)nc1-c1ccccc1` , which is 0 to 5%

The compound listed as `NC(=O)c1ccnc(-c2nc(-c3nccs3)n(Cc3ccccc3F)n2)c1` has a reported Emax at 30 µM of 5 to 10%

Measured Emax at 30 µM of `Nc1ccnc(-c2nc(-c3nccs3)n(Cc3ccccc3F)n2)c1` : 60 to 80%

What the record says about `Fc1ccccc1Cn1nc(-c2cc(N3CCOCC3)ccn2)nc1-c1cocn1` : Emax at 30 µM is 40 to 60%

get_value(item= `Fc1ccccc1Cn1nc(-c2cnccn2)nc1-c1cscn1` , readout=Emax at 30 µM) returns 40 to 60%

Data point: `Fc1ccccc1Cn1nc(-c2cscn2)nc1-c1cc(Br)ccn1` ; Emax at 30 µM = 0 to 5%

Record summary for `Fc1ccccc1Cn1nc(-c2cscn2)nc1-c1ccccn1` : reported Emax at 30 µM = 10 to 20%

The recorded Emax at 30 µM for entry `Nc1cccc(-c2nc(-c3nccs3)n(Cc3ccccc3F)n2)n1` equals 10 to 20%

The compound `Fc1ccccc1Cn1nc(-c2ccccn2)nc1-c1ncco1` showed Emax at 30 µM equal to 20 to 40%

The compound listed as `Fc1ccccc1Cn1nc(-c2cscn2)nc1-c1nccs1` shows Emax at 30 µM equal to 10 to 20%

Measured Emax at 30 µM, `COC(=O)N(C)c1c(N)nc(-c2nc(-c3nccs3)n(Cc3ccccc3F)n2)nc1N` : 40 to 60%

Per the record, `Fc1ccccc1Cn1nc(-c2cccc(Br)n2)nc1-c1nccs1` has Emax at 30 µM of 0 to 5%

// Emax at 30 µM value for `Cc1nc(-c2ncccn2)nn1Cc1ccccc1F` : 0 to 5%
